Structures can show the parent of a compound that is named as a salt.

[
  {
    "compound": "COc1ccc2c(c1-c1ccc(C[C@H](NC(=O)c3c(Cl)cccc3Cl)C(=O)O)cc1)OCCO2",
    "melting point [°C]": 218
  },
  {
    "compound": "COc1cccc(O)c1-c1ccc(C[C@H](NC(=O)c2c(Cl)cccc2Cl)C(=O)O)cc1",
    "melting point [°C]": 224.4
  },
  {
    "compound": "COc1cccc(OC)c1-c1ccc(C[C@H](NC(=O)c2c(Cl)cc(-c3ccc[nH]3)cc2Cl)C(=O)O)cc1",
    "melting point [°C]": 250
  },
  {
    "compound": "COc1cccc(OC)c1-c1ccc(C[C@H](NC(=O)c2c(Cl)cc(-c3ccn[nH]3)cc2Cl)C(=O)O)cc1 (as salt: TFA)",
    "melting point [°C]": 156
  }
]
